Biological target: T1, R &D hRGMc-His (human, UniProt Q6ZVN8 36-400)
T1 construct: Bought (R&D) His-tagged human RGMc; also called human RGMc; not shown: His tag
T1 sequence: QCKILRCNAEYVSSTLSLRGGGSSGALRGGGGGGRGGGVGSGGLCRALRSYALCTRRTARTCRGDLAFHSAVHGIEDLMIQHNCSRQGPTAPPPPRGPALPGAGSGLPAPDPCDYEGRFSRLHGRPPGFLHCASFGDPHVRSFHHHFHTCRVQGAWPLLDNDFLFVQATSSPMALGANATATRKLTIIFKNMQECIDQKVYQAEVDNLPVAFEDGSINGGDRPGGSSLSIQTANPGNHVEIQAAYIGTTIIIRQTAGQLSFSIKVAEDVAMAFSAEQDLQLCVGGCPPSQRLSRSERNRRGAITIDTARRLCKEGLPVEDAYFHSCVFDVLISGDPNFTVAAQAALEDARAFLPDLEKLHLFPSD
Assay: BIAcore; Ab captured on CM5 chip via anti-hIgG Fc Ab, antigen injected; 1:1 Langmuir fit
property.label: kon (M⁻¹ s⁻¹)
Quick reminder: number only, in M⁻¹ s⁻¹, skip the unit.

Look over these answered cases.
binder	unit.spec	kon
h5F9.AM11 (antibody, V domains shown, also called RGMA-h5F9AM; 11; RGMA-h5F9pJP302/pJP 303 hIgG1/K mut) VH: EVQLVESGGGLVQPGGSLRLSCAASGFTFSNYGMNWVRQAPGKGLEWVSMIYYDSSEKHYADSVKGRFTISRDNSKNTLYLQMNSLRAEDTAVYYCAKGTTPDYWGQGTMVTVSS VL: DVVLTQSPLSLPVTLGQPASISCRSSQSLEDSDGGTFLEWFQQRPGQSPRLLIYDVSSRFSGVPDRFSGSGSGTDFTLKISRVEAEDVGVYYCFQATHDPLSFGQGTKLEIK	M⁻¹ s⁻¹	5.05e+06
h5F9.AM4 (antibody, V domains shown, also called RGMA-h5F9AM.4; RGMA-h5F9Vh7a/pJP29 1 hIgG1/K mut) VH: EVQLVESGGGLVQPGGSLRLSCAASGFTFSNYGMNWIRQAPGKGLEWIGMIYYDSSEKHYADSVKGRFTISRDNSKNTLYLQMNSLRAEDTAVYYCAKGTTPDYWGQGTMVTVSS VL: DVVLTQSPLSLPVTLGQPASISCRSSQSLESSDGDTFLEWFQQRPGQSPRLLIYDVSTRFSGVPDRFSGSGSGTDFTLKISRVEAEDVGVYYCFQVTHDPVTFGQGTKLEIK	M⁻¹ s⁻¹	7.85e+06
h5F9.AM9 (antibody, V domains shown, also called RGMA-h5F9AM.9; RGMA-h5F9pJP297/pJP 299 hIgG1/K mut) VH: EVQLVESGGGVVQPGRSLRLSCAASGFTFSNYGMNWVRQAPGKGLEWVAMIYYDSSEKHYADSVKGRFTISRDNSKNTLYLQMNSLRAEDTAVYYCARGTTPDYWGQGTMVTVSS VL: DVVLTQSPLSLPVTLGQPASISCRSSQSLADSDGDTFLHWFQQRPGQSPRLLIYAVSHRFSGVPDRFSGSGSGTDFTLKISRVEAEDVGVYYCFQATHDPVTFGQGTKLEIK	M⁻¹ s⁻¹	1.55e+07

The recorded kon for h5F9.AM8 (antibody, V domains shown, also called RGMA-h5F9AM.8; RGMA-h5F9pJP297/pJP 298 hIgG1/K mut) VH: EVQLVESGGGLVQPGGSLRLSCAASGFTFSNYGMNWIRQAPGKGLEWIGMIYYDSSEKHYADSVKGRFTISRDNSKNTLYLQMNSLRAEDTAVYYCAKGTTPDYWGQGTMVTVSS VL: DVVLTQSPLSLPVTLGQPASISCRSSQSLEESDGYTFLHWFQQRPGQSPRLLIYEVSTRFSGVPDRFSGSGSGTDFTLKISRVEAEDVGVYYCFQATHDPLTFGQGTKLEIK is 3.95e+06

For reference, reported kon for humanized antibody 5F9.23 (antibody, V domains shown, Humanized parental antibody; also called h5F9.23; H5F9.23*) VH: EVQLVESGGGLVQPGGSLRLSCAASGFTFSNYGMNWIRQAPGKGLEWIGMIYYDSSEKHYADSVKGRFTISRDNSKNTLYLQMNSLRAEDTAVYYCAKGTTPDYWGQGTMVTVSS VL: DVVLTQSPLSLPVTLGQPASISCRSSQSLEYSDGYTFLEWFQQRPGQSPRLLIYEVSNRFSGVPDRFSGSGSGTDFTLKISRVEAEDVGVYYCFQATHDPLTFGQGTKLEIKR stands at 830000
